Where do the numbers come from? From patent US20100022542A1.

Target: human TPO receptor (hTPOR) (Homo sapiens)
Sequence (P40238 26-635): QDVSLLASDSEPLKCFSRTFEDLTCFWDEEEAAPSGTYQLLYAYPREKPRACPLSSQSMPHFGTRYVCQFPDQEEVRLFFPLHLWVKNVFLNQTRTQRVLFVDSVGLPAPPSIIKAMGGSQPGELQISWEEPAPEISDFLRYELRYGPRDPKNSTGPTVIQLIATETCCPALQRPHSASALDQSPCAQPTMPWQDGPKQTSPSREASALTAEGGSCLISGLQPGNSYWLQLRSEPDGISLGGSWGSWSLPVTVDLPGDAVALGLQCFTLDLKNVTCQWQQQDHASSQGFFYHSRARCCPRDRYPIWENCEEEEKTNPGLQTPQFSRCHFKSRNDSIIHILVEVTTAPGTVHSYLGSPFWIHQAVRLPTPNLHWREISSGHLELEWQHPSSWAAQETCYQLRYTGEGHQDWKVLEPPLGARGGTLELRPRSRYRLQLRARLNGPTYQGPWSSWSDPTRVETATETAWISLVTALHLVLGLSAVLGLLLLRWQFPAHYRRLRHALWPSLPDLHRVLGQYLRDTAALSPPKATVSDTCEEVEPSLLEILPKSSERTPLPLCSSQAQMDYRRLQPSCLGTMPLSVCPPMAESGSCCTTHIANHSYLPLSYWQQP
Assay: Proliferation of TPO dependent BaF/hTPOR cells, WST-1, thrombopoietic activity ED50 (Test Example 3)
Settings: 20 h incubation then WST-1 4 h, absorbance at 450 nm
pEC50: −log10 of the molar value.
value-kind: pEC50

Examples with their reported pEC50 follow.
>>> print(df.to_string())
                                   compound  value_kind  observed
0  CCOC(=O)/C(Cl)=C/c1ccc(C(=O)Nc2nc(-c3cccc(F)c3)cs2)cc1       pEC50      6.54
1  CC/C(=C\c1ccc(C(=O)Nc2nc(-c3ccc(Cl)c(Cl)c3)cs2)cc1)C(=O)NCc1ccccc1       pEC50      6.37
2  CC/C(=C\c1ccc(C(=O)Nc2nc(-c3ccc(Cl)c(Cl)c3)cs2)cc1)C(N)=O       pEC50      6.61
3  C/C(=C\c1ccc(C(=O)Nc2nc(-c3ccc(Cl)c(Cl)c3)cs2)cc1)C(=O)Nc1cccnc1       pEC50      6.68
4  O=C(O)C#Cc1ccc(C(=O)Nc2nc(-c3ccc(Cl)c(Cl)c3)cs2)cc1       pEC50      6.84
5  Cc1sc(NC(=O)c2ccc(/C=C(\Cl)C(=O)O)cc2)nc1-c1cccc(C(F)(F)F)c1       pEC50      7.44
6  O=C(O)/C(Cl)=C/c1ccc(C(=O)Nc2nc(-c3cccc(Cl)c3Cl)cs2)cc1       pEC50      7.12
7  CCC(=Cc1ccc(C(=O)Nc2nc(-c3ccc(Cl)c(Cl)c3)cs2)cc1)C(=O)O       pEC50      6.61
8  C#CCNC(=O)/C(C)=C/c1ccc(C(=O)Nc2nc(-c3ccc(Cl)c(Cl)c3)cs2)cc1       pEC50      6.70
9  CSc1ccc(-c2csc(NC(=O)c3ccc(/C=C(\Cl)C(=O)O)cc3)n2)cc1       pEC50      6.39

I = Cc1sc(NC(=O)c2ccc(/C=C(\Cl)C(=O)O)cc2)nc1-c1cccc(Br)c1
II = C=CCNC(=O)/C(C)=C/c1ccc(C(=O)Nc2nc(-c3ccc(Cl)c(Cl)c3)cs2)cc1
III = CCOC(=O)C(=Cc1ccc(C(=O)Nc2nc(-c3ccc(Cl)c(Cl)c3)cs2)cc1)CC
Request: Hey, can you sort those compounds up there by pEC50, smallest first? Give me the labels in the order the question wants.
Response: III, II, I

A = O=C(O)/C(Cl)=C/c1ccc(C(=O)Nc2nc(-c3ccc(F)cc3F)cs2)cc1
B = COC(=O)C(Cl)Cc1ccc(C(=O)Nc2nc(-c3ccc(Cl)c(Cl)c3)cs2)cc1 (stereo not shown)
Request: Of A and B , which carries the smaller reported pEC50 figure? Write down the label attached to your selection.
Response: B
(B: 6.59, A: 7.18)
